Target: T1, IFN-γ receptor (IFNGR; IFNGR1 and IFNGR2) on human cells (human, UniProt P15260 18-489; P38484 22-337)
T1 sequence (looked up) 1: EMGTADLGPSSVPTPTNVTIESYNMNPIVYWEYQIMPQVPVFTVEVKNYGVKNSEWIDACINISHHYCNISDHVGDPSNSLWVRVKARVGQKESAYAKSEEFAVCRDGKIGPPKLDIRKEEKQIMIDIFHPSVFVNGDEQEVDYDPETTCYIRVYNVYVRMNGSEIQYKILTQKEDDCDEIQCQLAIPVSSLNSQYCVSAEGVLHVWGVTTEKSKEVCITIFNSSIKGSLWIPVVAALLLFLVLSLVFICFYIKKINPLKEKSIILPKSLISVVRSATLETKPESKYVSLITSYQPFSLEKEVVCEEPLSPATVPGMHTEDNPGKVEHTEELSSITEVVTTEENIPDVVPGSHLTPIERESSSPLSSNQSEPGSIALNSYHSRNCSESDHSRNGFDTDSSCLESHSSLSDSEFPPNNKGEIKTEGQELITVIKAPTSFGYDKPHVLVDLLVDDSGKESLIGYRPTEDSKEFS
T1 sequence (looked up) 2: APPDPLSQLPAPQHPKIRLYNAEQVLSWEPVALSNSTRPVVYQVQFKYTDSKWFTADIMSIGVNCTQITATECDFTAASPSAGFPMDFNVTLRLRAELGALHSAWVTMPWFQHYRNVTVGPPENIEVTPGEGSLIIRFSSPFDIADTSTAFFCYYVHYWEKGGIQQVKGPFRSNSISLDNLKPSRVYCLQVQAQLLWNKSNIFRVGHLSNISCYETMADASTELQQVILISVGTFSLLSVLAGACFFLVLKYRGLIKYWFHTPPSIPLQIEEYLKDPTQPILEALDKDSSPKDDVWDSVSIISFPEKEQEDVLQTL
Experiment: cell-based or functional assay
Please go through the items and note down their EC50 (ng/mL)-MFI of pSTAT1, Intermediate monocytes of human PBMCs.
Write it as a number; the unit ng/mL goes unstated.

Summary for this binder, Compound 1, mono-mPEG-MAL-10K-rhIFN-γ-1b-M135C (ligand, Cys135 thioether-linked to linear mPEG-maleimide of about 10,000 daltons (mPEG-MAL-10K), succinimide ring closed, also called mPEG-MAL-10K-M135C-IFN-γ; M135C 10K linear) MQDPYVKEAENLKKYFNAGHSDVADNGTLFLGILKNWKEESDRKIMQSQIVSFYFKLFKNFKDDQSIQKSVETIKEDMNVKFFNSNKKKRDDFEKLTNYSVTDLNVQRKAIHELIQVMAELSPAAKTGKRKRSQCLFRGR : EC50 (ng/mL)-MFI of pSTAT1, Intermediate monocytes of human PBMCs is 0.85

Summary for this binder, rhIFN-γ-1b (wild-type recombinant human interferon-γ-1b) (ligand, also called wt (rhIFN-γ-1b); WT IFN-γ-1b (Actimmune)) MQDPYVKEAENLKKYFNAGHSDVADNGTLFLGILKNWKEESDRKIMQSQIVSFYFKLFKNFKDDQSIQKSVETIKEDMNVKFFNSNKKKRDDFEKLTNYSVTDLNVQRKAIHELIQVMAELSPAAKTGKRKRSQMLFRGR : EC50 (ng/mL)-MFI of pSTAT1, Intermediate monocytes of human PBMCs is 0.24

Summary for this binder, Compound 2, mono-mPEG-MAL-20K-rhIFN-γ-1b-M135C (ligand, Cys135 thioether-linked to linear mPEG-maleimide of about 20,000 daltons (mPEG-MAL-20K), succinimide ring closed, also called mPEG-MAL-20K-M135C-IFN-γ; M135C 20K linear) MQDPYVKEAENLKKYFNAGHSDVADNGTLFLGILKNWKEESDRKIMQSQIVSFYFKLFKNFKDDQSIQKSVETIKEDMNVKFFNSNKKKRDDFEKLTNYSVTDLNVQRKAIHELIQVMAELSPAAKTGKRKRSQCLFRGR : EC50 (ng/mL)-MFI of pSTAT1, Intermediate monocytes of human PBMCs is 4.28

Summary for this binder, Compound 3, mono-mPEG2-ru-MAL-20K-rhIFN-γ-1b-M135C (ring closed) (ligand, Cys135 thioether-linked to branched mPEG2-maleimide of about 20,000 daltons (mPEG2-MAL-20K), succinimide ring closed, also called mPEG2-MAL-20K-M135C-IFN-γ; M135C 20K branched (RC)) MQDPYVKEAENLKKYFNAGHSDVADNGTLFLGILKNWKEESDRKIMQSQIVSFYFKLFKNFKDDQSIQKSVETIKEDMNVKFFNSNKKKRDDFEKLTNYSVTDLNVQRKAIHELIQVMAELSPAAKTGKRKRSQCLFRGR : EC50 (ng/mL)-MFI of pSTAT1, Intermediate monocytes of human PBMCs is 32.7
